System: 786-O human renal cancer cell line [786-O人肾癌细胞株]
Experiment: CCK-8 assay, inhibition of proliferation of 786-O human renal cancer cells
Format: cell-based
Details: Homo sapiens, 786-0, 72 h
REPORTED_PROPERTY: pIC50
Give bare numbers, as −log10 of the molar value.

Record CC=C(C)C(O)C(C)C=C(C)C=CCC(C)=CCc1nc(OC)c(OC)c(O)c1C (stereo not shown) . Reported pIC50: 4.52

###

System: ACHN human renal cancer cell line [ACHN人肾癌细胞株]
Experiment: CCK-8 assay, inhibition of proliferation of ACHN human renal cancer cells
Format: cell-based
Settings: Homo sapiens, 72 h
REPORTED_PROPERTY: IC50 (nM)
Give bare numbers, in nM.

// IC50 lookup, molecule = CC=C(C)C(O)C(C)C=C(C)C=CCC(C)=CCc1nc(OC)c(OC)c(O)c1C (stereo not shown) [化合物1, Piericidin A] , result: 400

// provenance: patent CN107475146A
